Origin of measurements: patent US20260356830A1

Target: CCDC6-RET (Homo sapiens, UniProt P07949+Q16204+Q96SW2)
Construct: CCDC6 (natural N-terminal fusion partner, UniProt Q16204); endogenous in cells; host or cells: TPC-1 (parental, papillary thyroid carcinoma)
Sequence (Q16204+P07949 fused): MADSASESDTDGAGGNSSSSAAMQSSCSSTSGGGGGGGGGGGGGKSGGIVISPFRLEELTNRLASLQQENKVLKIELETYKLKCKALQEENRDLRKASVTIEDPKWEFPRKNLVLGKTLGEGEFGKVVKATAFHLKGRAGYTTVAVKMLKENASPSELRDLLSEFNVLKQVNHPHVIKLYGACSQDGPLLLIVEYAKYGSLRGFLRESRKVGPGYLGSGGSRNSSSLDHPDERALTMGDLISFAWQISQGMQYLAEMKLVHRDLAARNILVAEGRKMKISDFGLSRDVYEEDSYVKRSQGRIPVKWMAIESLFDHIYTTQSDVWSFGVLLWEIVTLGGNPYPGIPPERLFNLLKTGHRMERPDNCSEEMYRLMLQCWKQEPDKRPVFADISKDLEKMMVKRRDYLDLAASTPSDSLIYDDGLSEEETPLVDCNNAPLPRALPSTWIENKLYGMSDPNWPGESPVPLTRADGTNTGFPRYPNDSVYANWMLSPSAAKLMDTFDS
Sequence (Q96SW2 whole entry, the tested form may be a part): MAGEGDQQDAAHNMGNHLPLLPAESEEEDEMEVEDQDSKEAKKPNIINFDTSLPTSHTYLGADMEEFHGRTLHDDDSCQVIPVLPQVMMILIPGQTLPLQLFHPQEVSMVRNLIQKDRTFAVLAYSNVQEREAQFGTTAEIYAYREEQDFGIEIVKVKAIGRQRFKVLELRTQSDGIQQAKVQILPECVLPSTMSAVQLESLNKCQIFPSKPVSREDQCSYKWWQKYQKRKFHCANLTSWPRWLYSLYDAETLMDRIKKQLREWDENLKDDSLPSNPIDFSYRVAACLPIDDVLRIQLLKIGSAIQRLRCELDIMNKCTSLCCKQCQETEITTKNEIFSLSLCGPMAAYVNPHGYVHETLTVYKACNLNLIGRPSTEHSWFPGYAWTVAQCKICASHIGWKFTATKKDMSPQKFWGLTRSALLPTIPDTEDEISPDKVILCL
Sequence (Q16531 whole entry partner, the tested form may be a part): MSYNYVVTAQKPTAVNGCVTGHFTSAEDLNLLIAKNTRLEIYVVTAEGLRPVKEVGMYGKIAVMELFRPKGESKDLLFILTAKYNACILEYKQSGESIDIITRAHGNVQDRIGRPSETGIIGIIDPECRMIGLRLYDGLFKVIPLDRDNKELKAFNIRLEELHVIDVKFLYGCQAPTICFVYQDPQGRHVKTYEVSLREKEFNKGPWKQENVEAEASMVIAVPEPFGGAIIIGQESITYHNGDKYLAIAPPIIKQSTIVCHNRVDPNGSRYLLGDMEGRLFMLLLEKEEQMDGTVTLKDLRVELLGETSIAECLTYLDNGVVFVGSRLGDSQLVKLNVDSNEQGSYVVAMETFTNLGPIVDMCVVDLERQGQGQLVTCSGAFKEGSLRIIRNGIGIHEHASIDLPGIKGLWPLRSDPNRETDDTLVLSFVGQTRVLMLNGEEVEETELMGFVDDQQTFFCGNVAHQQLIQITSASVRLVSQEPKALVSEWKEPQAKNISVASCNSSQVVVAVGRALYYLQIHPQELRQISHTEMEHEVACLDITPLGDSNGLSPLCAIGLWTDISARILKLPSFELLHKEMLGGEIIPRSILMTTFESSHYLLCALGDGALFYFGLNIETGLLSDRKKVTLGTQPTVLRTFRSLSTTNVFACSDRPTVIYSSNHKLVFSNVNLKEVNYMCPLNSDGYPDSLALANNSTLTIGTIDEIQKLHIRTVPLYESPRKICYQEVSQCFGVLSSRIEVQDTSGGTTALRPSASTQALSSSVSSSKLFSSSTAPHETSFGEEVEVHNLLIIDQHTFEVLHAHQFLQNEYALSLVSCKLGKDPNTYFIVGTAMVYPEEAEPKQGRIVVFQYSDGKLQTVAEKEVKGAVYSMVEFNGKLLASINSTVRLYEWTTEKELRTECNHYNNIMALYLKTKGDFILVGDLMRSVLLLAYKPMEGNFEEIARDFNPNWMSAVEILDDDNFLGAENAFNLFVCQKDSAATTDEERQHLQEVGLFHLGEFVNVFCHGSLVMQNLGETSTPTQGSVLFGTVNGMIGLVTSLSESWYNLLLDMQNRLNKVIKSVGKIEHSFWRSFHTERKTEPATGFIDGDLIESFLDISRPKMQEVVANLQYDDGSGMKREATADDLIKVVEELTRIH
Assay: Cellular RET degradation, AlphaLISA, TPC-1 cell line
Type: cell-based
Settings: read-out: Cell Density TPC-1/CCDC6-RET DC50; half-maximal degradation concentration; TPC-1 (CCDC6-RET), 24 hrs
property-measured: DC50

compound	recorded-result
CCOc1cc(-c2ccc(N3CCC(COCc4cn(CCN5CCN(c6ccc7c(c6)CN(C6CCC(=O)NC6=O)C7=O)CC5)nn4)(NC(=O)c4cc(F)ccc4F)CC3)nc2)c2c(C#N)cnn2c1 (stereo not shown)	2 to 10 nM
CCOc1cc(-c2ccc(N3CCC(CN(C)C(=O)CCCCCCN4CCC(c5ccc6c(c5)CN(C5CCC(=O)NC5=O)C6=O)CC4)(NC(=O)c4cc(F)ccc4F)CC3)nc2)c2c(C#N)cnn2c1 (stereo not shown)	2 to 10 nM
CCOc1cc(-c2ccc(N3CCC(CN4CCN(C(=O)CCOCCN5CCN(c6ccc7c(c6)CN(C6CCC(=O)NC6=O)C7=O)CC5)CC4)(NC(=O)c4cc(F)ccc4F)CC3)nc2)c2c(C#N)cnn2c1 (stereo not shown)	2 to 10 nM
CCOc1cc(-c2ccc(N3CCC(CN4CCC5(CCC(CC(=O)N6CCN(c7ccc8c(c7)CN(C7CCC(=O)NC7=O)C8=O)CC6)CC5)CC4)(NC(=O)c4cc(F)ccc4F)CC3)nc2)c2c(C#N)cnn2c1 (stereo not shown)	< 2 nM
CCOc1cc(-c2ccc(N3CCC(CN4CCN(CCOCCC(=O)N5CCN(c6ccc7c(c6)C(=O)N(C6CCC(=O)NC6=O)C7)CC5)CC4)(NC(=O)c4cc(F)ccc4F)CC3)nc2)c2c(C#N)cnn2c1 (stereo not shown)	10 to 100 nM
CCOc1cc(-c2ccc(N3CCC(CN4CCN(C5CC6(CC(C(=O)N7CCN(c8ccc9c(c8)CN(C8CCC(=O)NC8=O)C9=O)CC7)C6)C5)CC4)(NC(=O)c4cc(F)ccc4F)CC3)nc2)c2c(C#N)cnn2c1 (stereo not shown)	2 to 10 nM
CCOc1cc(-c2ccc(N3CCC(NC(=O)c4cc(F)ccc4F)(C(=O)NCCCCCCCCCCNc4ccc5c(N6CCC(=O)NC6=O)nn(C)c5c4)CC3)nc2)c2c(C#N)cnn2c1	2 to 10 nM
CCOc1cc(-c2ccc(N3CCC(CN(C)C(=O)CCCCN4CCC(c5ccc6c(c5)CN(C5CCC(=O)NC5=O)C6=O)CC4)(NC(=O)c4cc(F)ccc4F)CC3)nc2)c2c(C#N)cnn2c1 (stereo not shown)	10 to 100 nM
CCOc1cc(-c2ccc(N3CCC(CN(C(=O)CCCCCCN4CCC(c5ccc6c(c5)C(=O)N(C5CCC(=O)NC5=O)C6)CC4)C(C)C)(NC(=O)c4cc(F)ccc4F)CC3)nc2)c2c(C#N)cnn2c1 (stereo not shown)	2 to 10 nM
CCOc1cc(-c2ccc(N3CCC(CN4CCC5(CC4)CCN(C(=O)CCN4CCN(c6ccc7c(c6)CN(C6CCC(=O)NC6=O)C7=O)CC4)CC5)(NC(=O)c4cc(F)ccc4F)CC3)nc2)c2c(C#N)cnn2c1 (stereo not shown)	2 to 10 nM
CCOc1cc(-c2ccc(N3CCC(CN4CCN(C(=O)CCCCCCCCNc5cccc(NC6CCC(=O)NC6=O)c5)CC4)(NC(=O)c4cc(F)ccc4F)CC3)nc2)c2c(C#N)cnn2c1 (stereo not shown)	10 to 100 nM
CCOc1cc(-c2ccc(N3CCC(CN4CCN(CC5CCN(C(=O)Cc6ccc7c(c6)C(=O)N(C6CCC(=O)NC6=O)C7)CC5)CC4)(NC(=O)c4cc(F)ccc4F)CC3)nc2)c2c(C#N)cnn2c1 (stereo not shown)	< 2 nM
CCOc1cc(-c2ccc(N3CCC(NC(=O)c4cc(F)ccc4F)(C(=O)NCCCCCCNc4ccc(N5CCC(=O)NC5=O)cc4)CC3)nc2)c2c(C#N)cnn2c1	2 to 10 nM
CCOc1cc(-c2ccc(N3CCC(CN4CCN(C(=O)CCCCNC(=O)COc5cccc6c5CN(C5CCC(=O)NC5=O)C6=O)CC4)(NC(=O)c4cc(F)ccc4F)CC3)nc2)c2c(C#N)cnn2c1 (stereo not shown)	2 to 10 nM
CCOc1cc(-c2ccc(N3CCC(CN4CCN(CC5CCN(C(=O)COc6ccc7c(c6)CN(C6CCC(=O)NC6=O)C7=O)CC5)CC4)(NC(=O)c4cc(F)ccc4F)CC3)nc2)c2c(C#N)cnn2c1 (stereo not shown)	< 2 nM
CCOc1cc(-c2ccc(N3CCC(CN4CCN(CCC(=O)N5CCN(c6ccc7c(c6)C(=O)N(C6CCC(=O)NC6=O)C7)CC5)CC4)(NC(=O)c4cc(F)ccc4F)CC3)nc2)c2c(C#N)cnn2c1 (stereo not shown)	10 to 100 nM
CCOc1cc(-c2ccc(N3CCC(CN4CC5(C4)CN(C(=O)CCN4CCC(c6ccc7c(c6)CN(C6CCC(=O)NC6=O)C7=O)CC4)C5)(NC(=O)c4cc(F)ccc4F)CC3)nc2)c2c(C#N)cnn2c1 (stereo not shown)	10 to 100 nM
CCOc1cc(-c2ccc(N3CCC(CN4CCN(C(=O)CCCCCCN5CCN(c6ccc7c(N8CCC(=O)NC8=O)nn(C)c7c6)CC5)CC4)(NC(=O)c4cc(F)ccc4F)CC3)nc2)c2c(C#N)cnn2c1	< 2 nM
CCOc1cc(-c2ccc(N3CCC(CN(C(=O)CCCCCCN4CCN(c5ccc6c(c5)CN(C5CCC(=O)NC5=O)C6=O)CC4)C(C)C)(NC(=O)c4cc(F)ccc4F)CC3)nc2)c2c(C#N)cnn2c1 (stereo not shown)	< 2 nM
